Give selectivity ratio for every item shown.
Assay: Selectivity index, ratio of MCC for african green monkey Vero cells to EC50 for Sindbis virus
Assay type: toxicity, cell-based
Conditions: read-out: Selectivity Index
Lab note: write the figure by itself, no unit.

What does the record list as selectivity ratio for CC(=O)N1N=C(c2ccc(C)cc2)CC1c1ccc(OCc2ccccc2)cc1 (configuration not stated) ?
5

Ok, now CC(=O)N1N=C(c2ccc(Cl)cc2)CC1c1ccc(OCc2ccccc2)cc1 (configuration not stated)
5

###

Give selectivity ratio for every item shown.
Experiment: Selectivity index, ratio of MCC for human HeLa cells to EC50 for Coxsackievirus B4
Format: toxicity, cell-based
Details: read-out: Selectivity Index
Lab note: write the figure by itself, no unit.

What does the record list as selectivity ratio for CC(=O)N1N=C(c2ccc(C)cc2)CC1c1ccc(OCc2ccccc2)cc1 (configuration not stated) ?
5

Ok, now Cc1ccc(C2=NN(C(N)=S)C(c3ccc(OCc4ccccc4)cc3)C2)cc1 (configuration not stated)
5

###

Experiment: Cytotoxicity against african green monkey Vero cells assessed as minimum cytotoxic concentration required to cause microscopically detectable alteration in normal cell morphology
Type: cell-based
Details: chlorocebus sabaeus
Give MCC for every item shown.
Please respond with the number in µg/mL and leave the unit unwritten.

What does the record list as MCC for Cc1ccc(C2=NN(c3nc(-c4ccc(Cl)cc4)cs3)C(c3ccc(OCc4ccccc4)cc3)C2)cc1 (centres undefined) ?
100

Ok, now Cc1ccc(C2=NN(C3=NC(=O)CS3)C(c3ccc(OCc4ccccc4)cc3)C2)cc1 (centres undefined)
100

Ok, now Cc1ccc(-c2csc(N3N=C(c4ccccc4)CC3c3ccc(OCc4ccccc4)cc3)n2)cc1 (centres undefined)
100

Ok, now CC(=O)N1N=C(c2ccc(C)cc2)CC1c1ccc(OCc2ccccc2)cc1 (centres undefined)
20

Ok, now NC(=S)N1N=C(c2ccc(Br)cc2)CC1c1ccc(OCc2ccccc2)cc1 (centres undefined)
100

Ok, now Clc1ccc(C2=NN(c3nc(-c4ccc(Cl)cc4)cs3)C(c3ccc(OCc4ccccc4)cc3)C2)cc1 (centres undefined)
100

Ok, now CC(=O)N1N=C(c2ccccc2)CC1c1ccc(OCc2ccccc2)cc1 (centres undefined)
100

Ok, now CC(=O)N1N=C(c2ccc(Br)cc2)CC1c1ccc(OCc2ccccc2)cc1 (centres undefined)
100

###

Tested on: Coxsackievirus B4
Test: Antiviral activity against Coxsackievirus B4 infected in human HeLa cells assessed as inhibition of virus-induced cytopathicity after 3 days
Assay type: functional, organism-based
Conditions: Enterovirus B, 72 h
measurementName: EC50

What does the record list as EC50 for CC(=O)N1N=C(c2ccc(Br)cc2)CC1c1ccc(OCc2ccccc2)cc1 (configuration not stated) ?
> 20 µg/mL

Ok, now CC(=O)N1N=C(c2ccc(C)cc2)CC1c1ccc(OCc2ccccc2)cc1 (configuration not stated)
> 4 µg/mL

Ok, now Clc1ccc(C2=NN(c3nc(-c4ccc(Cl)cc4)cs3)C(c3ccc(OCc4ccccc4)cc3)C2)cc1 (configuration not stated)
> 100 µg/mL

Ok, now Cc1ccc(-c2csc(N3N=C(c4ccc(Br)cc4)CC3c3ccc(OCc4ccccc4)cc3)n2)cc1 (configuration not stated)
> 100 µg/mL

Ok, now Cc1ccc(C2=NN(C(N)=S)C(c3ccc(OCc4ccccc4)cc3)C2)cc1 (configuration not stated)
> 0.8 µg/mL

Ok, now CC(=O)N1N=C(c2ccccc2)CC1c1ccc(OCc2ccccc2)cc1 (configuration not stated)
> 100 µg/mL

Ok, now Cc1ccc(-c2csc(N3N=C(c4ccc(Cl)cc4)CC3c3ccc(OCc4ccccc4)cc3)n2)cc1 (configuration not stated)
> 100 µg/mL

Ok, now Nc1ncnc2c1ncn2C[C@H](O)CO [(S)-DHPA]
> 250 µg/mL

Ok, now Clc1ccc(-c2csc(N3N=C(c4ccc(Br)cc4)CC3c3ccc(OCc4ccccc4)cc3)n2)cc1 (configuration not stated)
> 100 µg/mL

Ok, now Clc1ccc(-c2csc(N3N=C(c4ccccc4)CC3c3ccc(OCc4ccccc4)cc3)n2)cc1 (configuration not stated)
> 20 µg/mL

Ok, now Cc1ccc(-c2csc(N3N=C(c4ccccc4)CC3c3ccc(OCc4ccccc4)cc3)n2)cc1 (configuration not stated)
> 100 µg/mL

Ok, now CC(=O)N1N=C(c2ccc(Cl)cc2)CC1c1ccc(OCc2ccccc2)cc1 (configuration not stated)
> 20 µg/mL
